molecular target: IDH1^R132C (Homo sapiens, UniProt O75874, R132C); assay: NADPH depletion assay (diaphorase/resazurin), IDH1 R132C; format: biochemical; settings: IDH1^R132C 2 nM, alpha-ketoglutarate 0.14 mM; read-out: IDH1^R132C IC50
Sequence (O75874 whole entry R132C): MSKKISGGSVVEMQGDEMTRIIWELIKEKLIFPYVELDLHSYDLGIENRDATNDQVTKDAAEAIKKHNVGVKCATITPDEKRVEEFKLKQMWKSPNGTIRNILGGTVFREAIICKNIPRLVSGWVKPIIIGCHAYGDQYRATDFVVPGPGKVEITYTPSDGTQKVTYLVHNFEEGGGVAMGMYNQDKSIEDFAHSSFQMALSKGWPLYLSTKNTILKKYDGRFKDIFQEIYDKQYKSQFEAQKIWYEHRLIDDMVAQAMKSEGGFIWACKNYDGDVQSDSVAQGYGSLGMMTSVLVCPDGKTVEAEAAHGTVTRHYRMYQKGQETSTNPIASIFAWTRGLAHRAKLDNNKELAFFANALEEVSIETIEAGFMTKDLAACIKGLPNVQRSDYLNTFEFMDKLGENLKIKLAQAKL
just bin them by IC50: low (below 20 nM), medium (20 nM to below 100 nM), high (100 nM or more)

Classify this compound: `C=CC(=O)N1CCN(C2(c3ccc([C@H](C)Nc4ncc5ccc(=O)n(C(C)C)c5n4)cc3)CCN(C)CC2)CC1`
medium

Classify this compound: `C=CC(=O)N1CCN(C2(c3ccc(C4(Nc5ncc6ccc(=O)n(C(C)C)c6n5)CC4)cc3)CCOCC2)CC1`
medium

Classify this compound: `C=CC(=O)N1CCN(C2(c3ccc([C@H](C)Nc4ncc5c(C)cc(=O)n(C6CCCC6)c5n4)cc3)CCOCC2)CC1`
medium

Classify this compound: `CC(C)n1c(=O)ccc2cnc(N[C@@H](C)c3ccc(C4(N5CCN(C#N)CC5)CCOCC4)cc3)nc21`
high

Classify this compound: `C=CC(=O)N1CCN(C2(c3ccc([C@H](C)Nc4nc(N(C)C)c5ccc(=O)n(C(C)C)c5n4)cc3)CCOCC2)CC1`
high

Classify this compound: `C=CC(=O)N1CCN(C2(c3ccc([C@H](C)Nc4cc5c(ccc(=O)n5C(C)C)cn4)cc3)CCC(F)(F)CC2)CC1`
low

Classify this compound: `C=CC(=O)N1CCN(C2(c3ccc([C@H](C)Nc4ncc5ccc(=O)n(C(C)C)c5n4)cn3)CCOCC2)CC1`
high

Classify this compound: `[2H]C([2H])([2H])C([2H])(n1c(=O)ccc2cnc(N[C@@H](C)c3ccc(C4(N5CCN(C(=O)C=C)CC5)CCOCC4)cc3)nc21)C([2H])([2H])[2H]`
low

Classify this compound: `C=CC(=O)N1CCN(C2(c3ccc([C@H](C)Nc4ncc5ccc(=O)n(C(CC)CC)c5n4)cc3)CCOCC2)CC1`
low

Classify this compound: `C=CC(=O)N1CC(N(C)C2(c3ccc([C@H](C)Nc4cc5c(ccc(=O)n5C(C)C)cn4)cc3)CCOCC2)C1`
medium

Classify this compound: `C=CC(=O)N1CC(N(C)C2(c3ccc([C@H](C)Nc4ncc5ccc(=O)n(C(C)C)c5n4)cc3)CCC(F)(F)CC2)C1`
low

Classify this compound: `C=CC(=O)NCCN(C(=O)C(F)(F)F)C1(c2ccc([C@H](C)Nc3ncc4ccc(=O)n(C(C)C)c4n3)cc2)CCOCC1`
medium

Classify this compound: `C=C(C)C(=O)N1CCN(C2(c3ccc([C@H](C)Nc4ncc5ccc(=O)n(C(C)C)c5n4)cc3)CCOCC2)CC1`
high

Classify this compound: `CCC(=O)N1CCN(C2(c3ccc([C@H](C)Nc4ncc5ccc(=O)n(C(C)C)c5n4)cc3)CCOCC2)CC1`
high
